- Assay System: T1, human PD-L2 protein (monomeric, soluble analyte) (human, UniProt Q9BQ51 20-220)
- T1 construct: Recombinant human PD-L2 protein used as analyte on Octet or Biacore; a soluble form would lack the transmembrane part; also called monomeric PD-L2; monomeric human ligand
- T1 sequence: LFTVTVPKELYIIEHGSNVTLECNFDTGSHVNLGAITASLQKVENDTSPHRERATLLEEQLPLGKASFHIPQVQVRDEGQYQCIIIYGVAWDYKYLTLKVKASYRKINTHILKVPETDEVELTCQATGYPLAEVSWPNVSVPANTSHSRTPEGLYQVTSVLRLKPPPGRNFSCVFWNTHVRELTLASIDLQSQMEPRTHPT
- Test Name: Biacore, IgG KD, monovalent format, human PD-L2-His
pKd: −log10 of the molar value.
Readout: pKd

[[record]]
binder = "ADI-38003 (antibody, V domains shown) VH: QVQLQQWGAGLLKPSETLSLTCAVYGGSLSGYPWSWIRQPPGKGLEWIGETDVSGWTDYNPSLKSRVTISVDTSKNQFSLKLSSVTAADTAVYYCARDGRRMGTPSFDIWGQGTMVTVSS VL: DIQMTQSPSSVSASVGDRVTITCRASKGISSFLAWYQQKPGKAPKLLIYAASSLNSGVPSRFSGSGSGTDFTLTISSLQPEDFATYYCQKAVYFPPTFGGGTKVEIKR"
readout = "pKd"
observed_measurement = 9.76

